Parameter: pIC50. Scope: all listed entries.
Tested On: WRN [UniPro: Q14191 (WRN_HUMAN), N500-C946] (Homo sapiens (Human))
Sequence (Q14191 500-946): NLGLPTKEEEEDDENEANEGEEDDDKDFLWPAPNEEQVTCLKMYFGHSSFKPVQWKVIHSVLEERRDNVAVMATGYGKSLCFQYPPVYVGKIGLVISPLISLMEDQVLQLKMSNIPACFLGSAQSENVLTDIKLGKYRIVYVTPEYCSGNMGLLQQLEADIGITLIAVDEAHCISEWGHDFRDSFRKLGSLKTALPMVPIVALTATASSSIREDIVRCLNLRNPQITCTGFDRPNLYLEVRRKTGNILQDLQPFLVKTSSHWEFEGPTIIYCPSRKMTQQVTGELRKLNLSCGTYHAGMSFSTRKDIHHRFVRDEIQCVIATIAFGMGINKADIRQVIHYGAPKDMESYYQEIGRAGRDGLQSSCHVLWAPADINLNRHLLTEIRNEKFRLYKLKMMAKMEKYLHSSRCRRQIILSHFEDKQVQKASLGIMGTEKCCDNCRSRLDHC
Procedure Summary: WRN ATPase assay (ADP-Glo)
Format: biochemical
Test Settings: WRN enzymatic activity assay
pIC50: −log10 of the molar value.

// worked examples, pIC50 included
INSERT INTO measurements (molecule, tested_on, result) VALUES
  ('CCc1c(N2CCN(C(=O)c3nnc(C(F)F)[nH]3)CC2)c(=O)n2nc(C3=CCOCC3)nc2n1CC(=O)Nc1ccc(C(F)(F)F)cc1F [Example 310]', 'WRN [UniPro: Q14191 (WRN_HUMAN), N500-C946] (Homo sapiens (Human))', '> 7.00'),
  ('CCc1c(N2CCN(C(=O)c3cnc4cc(C)cn4c3O)CC2)c(=O)n2nc(C3=CCOCC3)nc2n1CC(=O)Nc1ccc(C(F)(F)F)cc1Cl [Example 92]', 'WRN [UniPro: Q14191 (WRN_HUMAN), N500-C946] (Homo sapiens (Human))', '> 7.00'),
  ('CCc1c(N2CCN(C(=O)c3nc4ccccc4cc3N)CC2)c(=O)n2nc(C3=CCOCC3)nc2n1CC(=O)Nc1ccc(C(F)(F)F)cc1Cl [Example 307]', 'WRN [UniPro: Q14191 (WRN_HUMAN), N500-C946] (Homo sapiens (Human))', '6.00 to 7.00');

What pIC50 value was documented for this molecule, CCc1c(N2CCN(C(=O)C(=O)Nc3nccs3)CC2)c(=O)n2nc(N3CCOCC3)nc2n1CC(=O)Nc1ccc(C(F)(F)F)cc1Cl [Example 258] ? > 7.00

What pIC50 value was documented for this molecule, CCc1c(N2CCN(C(=O)c3[nH]c4ccncc4c3F)CC2)c(=O)n2nc(C3=CCOCC3)nc2n1CC(=O)Nc1ccc(C(F)(F)F)cc1Cl [Example 300] ? 6.00 to 7.00

What pIC50 value was documented for this molecule, CCc1c(N2CCN(C(=O)CNC(=O)NC(=O)c3cc(F)ccc3F)CC2)c(=O)n2nc(C3=CCOCC3)nc2n1CC(=O)Nc1ccc(C(F)(F)F)cc1Cl [Example 265] ? > 7.00

Where these numbers come from: patent US20260015358A1
